- systemTested: Aryl hydrocarbon receptor (Homo sapiens) (UniProt P35869)
- Sequence (P35869 whole entry, looked up): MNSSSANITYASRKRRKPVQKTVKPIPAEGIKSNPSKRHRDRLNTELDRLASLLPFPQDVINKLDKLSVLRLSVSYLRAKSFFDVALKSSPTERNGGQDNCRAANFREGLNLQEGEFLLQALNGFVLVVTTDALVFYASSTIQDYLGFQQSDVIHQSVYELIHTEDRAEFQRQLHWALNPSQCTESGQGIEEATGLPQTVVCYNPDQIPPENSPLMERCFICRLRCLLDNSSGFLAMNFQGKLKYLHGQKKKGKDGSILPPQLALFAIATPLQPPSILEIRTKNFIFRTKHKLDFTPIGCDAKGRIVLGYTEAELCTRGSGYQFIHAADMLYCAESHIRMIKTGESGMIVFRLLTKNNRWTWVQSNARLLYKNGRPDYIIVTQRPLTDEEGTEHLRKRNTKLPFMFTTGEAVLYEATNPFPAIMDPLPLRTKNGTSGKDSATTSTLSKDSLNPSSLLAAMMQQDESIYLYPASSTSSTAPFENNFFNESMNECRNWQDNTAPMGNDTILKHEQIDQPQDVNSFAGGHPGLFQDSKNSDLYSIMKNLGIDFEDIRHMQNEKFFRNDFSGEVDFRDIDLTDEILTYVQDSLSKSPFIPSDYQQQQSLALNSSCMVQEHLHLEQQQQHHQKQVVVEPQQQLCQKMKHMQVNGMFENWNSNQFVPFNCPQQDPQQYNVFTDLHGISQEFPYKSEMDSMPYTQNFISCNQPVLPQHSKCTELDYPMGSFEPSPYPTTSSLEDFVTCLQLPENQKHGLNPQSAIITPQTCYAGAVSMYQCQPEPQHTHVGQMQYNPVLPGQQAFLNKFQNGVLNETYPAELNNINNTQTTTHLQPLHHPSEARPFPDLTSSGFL
- measurementProtocol: qHTS assay to identify small molecule that activate the aryl hydrocarbon receptor (AhR) signaling pathway (AID 743085); also: nearly all actives have a fitted effect of over 15% in size;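 as to activation: HG2L7.5c1 human HepG2 liver cells with stably integrated DRE-driven firefly reporter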
- experimentalParameters: HepG2 AhR-luc (HG2L7.5c1), luciferase, 24 h; series mostly up to 70.3 µM
Results filed as inconclusive are left out. Activity calls are given as the source filed them. Calls follow the shape of the dose curve; as a rule, active = well fitted activation curve with a large enough effect in the repeat runs; inconclusive = weak or mixed curves; inactive = no such curve, though single readings can be large or run the other way.
Classes used: yes (1) (active), no (0) (inactive)

[[record]]
compound = "O=[N+]([O-])c1cccc(S(=O)(=O)O)c1"
systemtested = "Aryl hydrocarbon receptor (Homo sapiens) (UniProt P35869)"
qualitativelabel = "no (0)"

[[record]]
compound = "CNCCCCOc1ccccc1Cc1ccccc1"
systemtested = "Aryl hydrocarbon receptor (Homo sapiens) (UniProt P35869)"
qualitativelabel = "no (0)"

[[record]]
compound = "CCOC(=O)C(F)(F)F"
systemtested = "Aryl hydrocarbon receptor (Homo sapiens) (UniProt P35869)"
qualitativelabel = "no (0)"

[[record]]
compound = "CCCCOC(=O)CCCCCCCC(=O)OCCCC"
systemtested = "Aryl hydrocarbon receptor (Homo sapiens) (UniProt P35869)"
qualitativelabel = "no (0)"

[[record]]
compound = "COc1ccc(C(=O)Nc2nc3ccccc3c(NCc3ccccc3)c2C#N)cc1"
systemtested = "Aryl hydrocarbon receptor (Homo sapiens) (UniProt P35869)"
qualitativelabel = "yes (1)"

[[record]]
compound = "CC(C)C[C@H]1C(=O)N2CCC[C@H]2[C@]2(O)O[C@](NC(=O)[C@@H]3C=C4c5cccc6[nH]c(Br)c(c56)C[C@H]4N(C)C3)(C(C)C)C(=O)N12"
systemtested = "Aryl hydrocarbon receptor (Homo sapiens) (UniProt P35869)"
qualitativelabel = "no (0)"

[[record]]
compound = "CCOC(=O)COC(=O)c1cc(Oc2ccc(C(F)(F)F)cc2Cl)ccc1[N+](=O)[O-]"
systemtested = "Aryl hydrocarbon receptor (Homo sapiens) (UniProt P35869)"
qualitativelabel = "no (0)"

[[record]]
compound = "OCCNCc1ccccc1"
systemtested = "Aryl hydrocarbon receptor (Homo sapiens) (UniProt P35869)"
qualitativelabel = "no (0)"

[[record]]
compound = "Cn1c(=O)cc(Oc2ccc(F)cc2F)c2cnc(NCC(C)(C)O)nc21"
systemtested = "Aryl hydrocarbon receptor (Homo sapiens) (UniProt P35869)"
qualitativelabel = "no (0)"

[[record]]
compound = "O=C(O)c1ccc(-n2nc(-c3ccccc3O)nc2-c2ccccc2O)cc1"
systemtested = "Aryl hydrocarbon receptor (Homo sapiens) (UniProt P35869)"
qualitativelabel = "no (0)"

[[record]]
compound = "CC(COCCO)OCCO (stereo unspecified)"
systemtested = "Aryl hydrocarbon receptor (Homo sapiens) (UniProt P35869)"
qualitativelabel = "no (0)"

